# Protocol description: In vivo stability test (plasma pharmacokinetics after single intravenous injection)
# Recorded conditions: mouse
Value type: Tmax (min)
Value expressed in min; do not type the unit.

Q) What Tmax value was documented for this compound, CSCC[C@H](NC(=O)[C@H](C)NC(=O)CNC(=O)[C@H](Cc1c[nH]cn1)NC(=O)[C@@H](N)CCCNC(=N)N)C(=O)N[C@H](C(=O)N[C@@H](Cc1ccc(O)cc1)C(=O)N[C@@H](CC(C)C)C(=O)N[C@@H](CCCCN)C(=O)O)C(C)C [AGM-330m] ?
A) 10

----------
# Protocol description: In vivo stability test (plasma pharmacokinetics after single intravenous injection)
# Recorded conditions: mouse
Value type: Cmax (ng/mL)
Value expressed in ng/mL; do not type the unit.

Q) What Cmax value was documented for this molecule, CSCC[C@H](NC(=O)[C@H](C)NC(=O)CNC(=O)[C@H](Cc1c[nH]cn1)NC(=O)[C@@H](N)CCCNC(=N)N)C(=O)N[C@H](C(=O)N[C@@H](Cc1ccc(O)cc1)C(=O)N[C@@H](CC(C)C)C(=O)N[C@@H](CCCCN)C(=O)O)C(C)C [AGM-330m] ?
A) 1270
